- Assayed System: wild type (WT) MET kinase (Homo sapiens)
- Construct: purchased Carna 08-151
- Sequence (P08581 25-1390): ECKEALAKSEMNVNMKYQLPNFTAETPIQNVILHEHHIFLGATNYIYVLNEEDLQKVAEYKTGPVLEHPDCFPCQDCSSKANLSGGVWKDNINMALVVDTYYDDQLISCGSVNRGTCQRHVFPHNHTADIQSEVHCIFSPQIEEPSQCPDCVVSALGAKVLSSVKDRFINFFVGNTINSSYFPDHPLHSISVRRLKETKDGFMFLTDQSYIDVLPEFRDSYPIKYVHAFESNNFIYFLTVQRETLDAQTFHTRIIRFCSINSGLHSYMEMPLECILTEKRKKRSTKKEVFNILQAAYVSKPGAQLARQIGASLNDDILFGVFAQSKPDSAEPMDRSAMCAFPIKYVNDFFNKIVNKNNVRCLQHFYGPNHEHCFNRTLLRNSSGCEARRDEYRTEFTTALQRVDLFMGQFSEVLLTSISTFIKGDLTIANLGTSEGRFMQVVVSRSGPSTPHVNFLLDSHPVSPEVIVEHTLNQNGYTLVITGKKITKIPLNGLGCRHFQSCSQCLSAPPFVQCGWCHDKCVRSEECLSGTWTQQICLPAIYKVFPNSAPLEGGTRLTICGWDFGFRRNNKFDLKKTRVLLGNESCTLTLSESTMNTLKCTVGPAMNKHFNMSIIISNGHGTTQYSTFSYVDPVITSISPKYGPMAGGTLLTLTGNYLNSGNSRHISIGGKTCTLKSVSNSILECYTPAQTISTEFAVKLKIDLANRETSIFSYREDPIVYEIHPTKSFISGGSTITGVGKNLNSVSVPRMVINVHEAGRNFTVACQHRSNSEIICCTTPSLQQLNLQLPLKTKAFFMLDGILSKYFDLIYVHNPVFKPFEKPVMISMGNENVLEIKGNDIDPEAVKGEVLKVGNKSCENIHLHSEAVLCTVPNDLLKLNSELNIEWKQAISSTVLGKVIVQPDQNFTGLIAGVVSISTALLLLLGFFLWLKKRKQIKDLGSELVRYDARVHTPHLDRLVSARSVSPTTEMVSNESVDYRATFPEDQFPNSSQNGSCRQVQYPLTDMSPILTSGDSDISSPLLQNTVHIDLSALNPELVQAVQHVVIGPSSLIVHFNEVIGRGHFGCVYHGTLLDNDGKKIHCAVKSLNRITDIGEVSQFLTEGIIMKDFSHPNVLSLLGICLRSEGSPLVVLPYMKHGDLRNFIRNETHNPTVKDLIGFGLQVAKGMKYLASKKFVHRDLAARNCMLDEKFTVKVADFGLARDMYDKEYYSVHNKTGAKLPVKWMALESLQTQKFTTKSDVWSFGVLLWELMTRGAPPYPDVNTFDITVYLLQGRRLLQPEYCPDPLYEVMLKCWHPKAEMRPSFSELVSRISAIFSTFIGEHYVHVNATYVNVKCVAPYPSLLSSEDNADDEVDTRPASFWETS
- Experiment: Kinase inhibition experiment (HTRF KinEASE-TK kit), wild-type MET
- Format: biochemical
- Run Parameters: 10 concentrations, 3-fold dilution
IC50 under 3 nM gets criterion met, anything at or over 3 nM gets criterion not met.

> print(dat)
                                   molecule        class.label
1  C[C@@H](CO)Cn1ccc2ncnc(Oc3ccc(NC(=O)c4cccc(-c5ccc(F)cc5)[n+]4[O-])cc3F)c21 [Final product 170]  criterion not met
2  O=C(Nc1ccc(Oc2ccnc3[nH]nc(N4CCC[C@H](CO)C4)c23)c(F)c1)c1cccc(-c2ccc(F)cc2)[n+]1[O-] [Final product 33]  criterion not met
3  Cc1ccc(C(=O)Nc2ccc(Oc3ccnc4[nH]nc(N[C@H](C)CO)c34)c(Cl)c2)[n+]([O-])c1-c1ccc(F)cc1 [Final product 124]      criterion met
4  C[C@H](CO)Nc1n[nH]c2nccc(Oc3ccc(NC(=O)c4ccc(F)c(-c5ccc(F)cc5)[n+]4[O-])c(F)c3)c12 [Final product 155]  criterion not met
5  O=C(Nc1ccc(Oc2ccnc3[nH]nc(N4CCO[C@@H](CO)C4)c23)c(F)c1)c1cccc(-c2ccc(F)cc2)[n+]1[O-] [Final product 34]      criterion met

* * *

Parameter: IC50. Scope: all listed entries.
- Assayed System: MET D1228N (Homo sapiens, UniProt P08581, D1228N)
- Construct: purchased Signalchem M52-12IG
- Sequence (P08581 25-1390 D1228N): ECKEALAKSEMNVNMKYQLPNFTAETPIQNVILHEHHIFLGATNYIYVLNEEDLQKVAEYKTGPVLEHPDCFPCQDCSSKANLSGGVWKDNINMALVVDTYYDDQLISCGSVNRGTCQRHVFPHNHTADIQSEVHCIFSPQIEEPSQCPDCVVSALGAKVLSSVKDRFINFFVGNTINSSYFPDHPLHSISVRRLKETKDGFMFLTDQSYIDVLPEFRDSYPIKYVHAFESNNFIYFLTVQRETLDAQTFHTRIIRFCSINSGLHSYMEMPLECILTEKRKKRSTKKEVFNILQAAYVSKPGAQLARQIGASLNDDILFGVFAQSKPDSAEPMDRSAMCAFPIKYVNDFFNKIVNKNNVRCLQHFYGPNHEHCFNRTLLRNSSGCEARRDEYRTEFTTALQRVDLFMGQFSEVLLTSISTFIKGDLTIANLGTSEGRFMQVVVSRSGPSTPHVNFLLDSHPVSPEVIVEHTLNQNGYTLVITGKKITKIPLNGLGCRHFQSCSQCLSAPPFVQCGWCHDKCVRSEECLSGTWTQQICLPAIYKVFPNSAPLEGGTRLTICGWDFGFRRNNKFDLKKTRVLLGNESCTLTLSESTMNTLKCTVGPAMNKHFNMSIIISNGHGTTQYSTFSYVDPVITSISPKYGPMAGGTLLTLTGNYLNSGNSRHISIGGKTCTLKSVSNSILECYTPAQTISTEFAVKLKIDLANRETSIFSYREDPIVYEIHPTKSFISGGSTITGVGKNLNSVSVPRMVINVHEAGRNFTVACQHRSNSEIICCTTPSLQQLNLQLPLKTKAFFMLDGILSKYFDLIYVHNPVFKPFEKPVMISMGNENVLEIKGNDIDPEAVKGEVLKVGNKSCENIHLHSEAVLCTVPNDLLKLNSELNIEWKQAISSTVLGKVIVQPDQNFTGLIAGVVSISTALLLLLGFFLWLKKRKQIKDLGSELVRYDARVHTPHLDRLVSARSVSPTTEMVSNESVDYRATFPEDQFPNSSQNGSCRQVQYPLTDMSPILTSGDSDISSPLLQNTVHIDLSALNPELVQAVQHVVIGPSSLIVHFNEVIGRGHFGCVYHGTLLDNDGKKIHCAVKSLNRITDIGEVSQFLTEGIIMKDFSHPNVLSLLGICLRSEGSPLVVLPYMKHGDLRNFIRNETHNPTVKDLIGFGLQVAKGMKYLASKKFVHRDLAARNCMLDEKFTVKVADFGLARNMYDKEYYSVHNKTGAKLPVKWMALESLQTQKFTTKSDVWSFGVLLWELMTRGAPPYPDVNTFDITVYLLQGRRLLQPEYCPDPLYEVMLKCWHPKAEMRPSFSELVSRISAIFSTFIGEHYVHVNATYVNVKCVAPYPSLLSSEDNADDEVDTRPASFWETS
- Experiment: Kinase inhibition experiment (HTRF KinEASE-TK kit), mutant MET D1228N
- Format: biochemical
- Run Parameters: 10 concentrations, 3-fold dilution
- Procedure: The activity of the compounds was determined by detecting the residual amount of ATP after reacting with wild-type or mutant MET protein kinase by using an HTRF KinEASE-TK kit. […] 5) the fluorescence signals at 615 nm (cryptate) and 665 nm (XL665) were read with Envision 2104 or TECAN. […]
Readout: IC50 (nM)

> print(dat)
                                    compound  readout  value.measured
 1  CC1(O)CCN(c2n[nH]c3nccc(Oc4ccc(NC(=O)c5cccc(-c6ccc(F)cc6)[n+]5[O-])cc4F)c23)CC1     IC50            13.4
 2  O=C(Nc1ccc(Oc2ccnc3[nH]nc(NCC(O)C(F)(F)F)c23)c(F)c1)c1cccc(-c2ccc(F)cc2)[n+]1[O-] (centres unmarked)     IC50            35.7
 3  CC(O)CNc1n[nH]c2nccc(Oc3ccc(NC(=O)c4cccc(-c5ccc(F)cc5)[n+]4[O-])cc3F)c12 (centres unmarked)     IC50            28.4
 4  Cc1ccc(C(=O)Nc2ccc(Oc3ccnc4[nH]nc(N[C@H](C)CO)c34)cc2F)[n+]([O-])c1-c1ccc(F)cc1     IC50            19.6
 5  C[C@H](CO)Nc1n[nH]c2nccc(Oc3ccc(NC(=O)c4cc(C5CC5)cc(-c5ccc(F)cc5)[n+]4[O-])cc3F)c12     IC50            41.2
 6  Cc1ccc(C(=O)Nc2ccc(Oc3ccnc4[nH]nc(N[C@H](C)CO)c34)c(F)c2)[n+]([O-])c1-c1ccc(F)cc1     IC50            12.3
 7  C[C@H](CO)Nc1n[nH]c2nccc(Oc3ccc(NC(=O)c4ccc(F)c(-c5ccc(F)cc5)[n+]4[O-])cc3Cl)c12     IC50            17.8
 8  O=C(Nc1ccc(Oc2ccnc3[nH]nc(N[C@H]4COC[C@@H]4O)c23)c(Cl)c1)c1ccc(F)c(-c2ccc(F)cc2)[n+]1[O-]     IC50            17.6
 9  C[C@H](CO)Nc1n[nH]c2nccc(Oc3ccc(NC(=O)c4ccc(Cl)c(-c5ccc(F)cc5)[n+]4[O-])cc3Cl)c12     IC50              19
10  C[C@H](CO)Nc1n[nH]c2nccc(Oc3ccc(NC(=O)c4ccc(N(C)C)c(-c5ccc(F)cc5)[n+]4[O-])cc3F)c12     IC50            16.4
11  C[C@H](CO)Nc1n[nH]c2nccc(Oc3cc(F)c(NC(=O)c4ccc(Cl)c(-c5ccc(F)cc5)[n+]4[O-])cc3F)c12     IC50            46.2
